Measured % ttPeak, Ab 50 nM, listed per entry.
study.target: Relipidated TF (Tissue Factor) (UniProt P13726 33-295, limits assumed)
protocol.text: cell-based or functional assay
Quick note: give the figure in %, leave out the unit.

Look over these answered cases.
binder="TF-011 (antibody, V domains shown) VH: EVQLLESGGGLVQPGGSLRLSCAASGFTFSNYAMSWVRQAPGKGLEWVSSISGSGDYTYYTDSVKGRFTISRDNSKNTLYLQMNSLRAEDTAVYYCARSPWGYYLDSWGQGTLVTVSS VL: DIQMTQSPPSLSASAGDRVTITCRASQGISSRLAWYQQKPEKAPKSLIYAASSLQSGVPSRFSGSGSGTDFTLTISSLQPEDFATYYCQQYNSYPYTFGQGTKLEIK" endpoint_result=284
binder="25A (antibody, human IgG1, V domains shown) VH: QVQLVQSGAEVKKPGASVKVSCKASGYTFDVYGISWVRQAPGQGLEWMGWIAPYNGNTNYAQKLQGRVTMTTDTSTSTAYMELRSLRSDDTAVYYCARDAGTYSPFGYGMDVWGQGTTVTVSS VL: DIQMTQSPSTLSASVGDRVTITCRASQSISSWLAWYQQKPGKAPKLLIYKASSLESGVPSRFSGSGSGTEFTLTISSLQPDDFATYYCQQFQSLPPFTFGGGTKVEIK" endpoint_result=9
binder="5G9 (humanized TF8-5G9, CNTO 860) (antibody, V domains shown) VH: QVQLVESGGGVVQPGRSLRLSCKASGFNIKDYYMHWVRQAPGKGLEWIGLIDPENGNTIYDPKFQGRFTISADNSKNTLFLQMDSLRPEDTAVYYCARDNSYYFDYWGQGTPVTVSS VL: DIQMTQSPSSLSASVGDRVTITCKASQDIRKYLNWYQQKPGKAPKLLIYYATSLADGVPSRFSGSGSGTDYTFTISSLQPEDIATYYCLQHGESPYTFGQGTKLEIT" endpoint_result=338

Lab note: next binder to report on.
Qu. For 39A (antibody, human IgG1, V domains shown) VH: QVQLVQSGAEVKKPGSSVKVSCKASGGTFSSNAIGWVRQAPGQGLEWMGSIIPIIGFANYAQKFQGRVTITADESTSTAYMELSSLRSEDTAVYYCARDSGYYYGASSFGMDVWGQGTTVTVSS VL: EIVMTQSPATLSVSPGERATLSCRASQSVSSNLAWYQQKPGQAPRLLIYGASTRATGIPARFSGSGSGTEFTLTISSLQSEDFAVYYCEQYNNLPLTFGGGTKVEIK , what is its reported % ttPeak, Ab 50 nM?
Ans. 397
